# TEST SUMMARY: folding stability dG unfold (combined trypsin and chymotrypsin); higher = more stable
READOUT KIND: folding stability dG unfold (kcal/mol)
Response body: numeric value in kcal/mol, unit text excluded.

input: Give reported folding stability dG unfold value for SAETKAEVFRFGDVLVVVTEERVTTPDGSERPVYTVTLLVYDPSTGKWTPFSRPFSSKEDAAKALSSGVSAG [r14_500_TrMRF]
output: 1.98

input: Name the recorded folding stability dG unfold of the sequence listed here: SAGGSAKWELSIWIPAPGMTPDKARELARDIAREFAQPGWKVKDIEVEPVNPDENVYRGTVTIEPPSAGGSA [r15_96_TrROS]
output: 1.49

input: Answer with the recorded folding stability dG unfold for the sequence listed here: SAGGSAGGSKIEIHVQVSPELSPEEALERIRREIEEALPEELKDISLDDIIITVYPSHPDVPLSAGGSAGGS [r12_384_TrMRF]
output: 0.643

input: Write down folding stability dG unfold measured for item SAGGSAGGSAGGGMPSYVTKTTTTTVKITNTTTGGNSTTTTTSTVTVTTTTLLPPGLLASAGGSAGGSAGGS [r10_300_JUSTAS]
output: 0.835

input: Answer with the recorded folding stability dG unfold of SMKVKPGEKIKVTVLALFYDKETKKLYLVKAEVEATVELDEDGNLTVKVEVKKVEVVEEMPLDELKELLKSA [r9_423_TrROS_Hall] only.
output: 2.97

====

# TEST SUMMARY: folding stability dG unfold from trypsin proteolysis; higher = more stable
The recorded folding stability dG unfold of each item maps onto one of these classes: lower level (below 1 kcal/mol), middle level (1 kcal/mol to below 2 kcal/mol), upper level (2 kcal/mol or more)

// below: answered sequences
>>> print(df.to_string())
                           polymer_sequence  category_label
0  SAGGMTLRIVLPEEEAEKLVEELKKIFPGAEIKVKKVEYNEETGEKLVVLEIKFKSKEEAEKAKKLLESAGG [r13_539_TrROS_Hall]     upper level
1  SAGGSAGGSAGGSKTYRIYFKDNNKVITVKSKEDLKAALEKAGYTISEEDLDKIVKIEPSAGGSAGGSAGGS [r4_104_TrROS_Hall]    middle level
2  SAGGMRPMVVTVRYPDGSVQTLVADYDPDTDVIRFPFPSDGTERDIPAGEWREDPDYQVLSETPLSLESAGG [r13_994_JUSTAS]    middle level
3  SAGGSAGGSAGGGMTITTTSSVSESDGGLTLSTTTTAFDPVTGTWTPLTTTTTTLPPTTSAGGSAGGSAGGS [r10_51_JUSTAS]    middle level
4  SAGGSSGSIDRVELLSFDPEKGIALVRFPSFGSIQVIPIPPGKNSLKVKVINKNGEPFEFTFSLPLSAGGSA [r2_132_TrMRF]     upper level
5  SAGGSAGGSAGGSGLYLRLFDPGTGNVVAEVRVEIAPDGSLIAEARVADVPPVEDPEKASAGGSAGGSAGGS [r4_178_TrMRF]     lower level
6  SAGGSMAPDVKVEVEVFPDGLVLFRLTLPDGRPFLALAEVREDGRVKVVVFDLYPGEKVEFEIPIKSAGGSA [r2_99_TrMRF]     upper level
7  SAGGSAGGSAGGSDNDGAKPPKIKVEIHPVNMPPGDIVVHNDHYVIAFPNGWFFVIRPKSAGGSAGGSAGGS [r4_394_TrROS]     lower level

input: Dear colleague, I would appreciate it if you could identify the bin for SSMPLEEIVERVAEELGIPEEELERIESVDPGVVDPSPEGPTRVELRITLRDPHSDTTTEYRVEVEDPGGSA [r9_230_JUSTAS] and reply at your convenience.
output: lower level

input: Lab log: SAGGSAGGSAPPRRVTIEYDPDSGMFKVKVPGGKEREIEGMPPNQIEEQAKDYGIDRVEIVSAGGSAGGSAG [r3_78_TrROS] — assign folding stability dG unfold category
output: lower level

input: Into which bin does this sequence go? SAGGSAGGSAGGMTTTTVSRSPDGTITTTTTTYVPTPDGSVVPVTTTTTTTPIDPAALSSAGGSAGGSAGGS [r10_991_JUSTAS]
output: middle level

input: Quick check: band for SAGGSAGGSKPNEIKIKKIKIEVKIKKKKVDKEKGEEIYEIEEVKIEIEEITLSKEELEKLLKSAGGSAGGS [r12_723_TrROS_Hall]
output: middle level

input: In plain terms, what class is PKIEITRVEYHPNEGYYRVTVKLPGKDVSIYMGPENGMMQVYFPGNGREREFPFDSMDDAVDRAKELLKERS [r1_177_TrROS] ?
output: middle level

input: Kindly state the category for this sequence: SDKVVIHFYPGMPVSNIVERVADNPDMTIEIVMPPGMKPSWYNYIRKALRDANIPKDQKVEIEWVPYDDMSA [r9_670_TrROS]
output: upper level
